# S. Flatsedge plant response rating annotations
System: smallflower flatsedge
Assay: Test B flood test smallflower flatsedge
Assay type: in vivo, Cyperus difformis
Details: Rate 2000 g/ha; Pre-emergence (as headed); scale 0 to 10
Please reply with the value in numeric form only.

Task item: # query: S. Flatsedge plant response rating of entry Cc1cccc(C)c1-n1c(=O)on(C(=O)N(c2ccccc2)C(C)C)c1=O [Compound 46]
Reply: 8

Task item: Next compound: CC(C)N(C(=O)n1oc(=O)n(Cc2cccs2)c1=O)c1ccccc1 [Compound 103]
Reply: 0

Task item: Next compound: CC(C)N(C(=O)n1oc(=O)n(C2CCCCC2)c1=O)c1ccc(Cl)cc1 [Compound 111]
Reply: 0

Task item: Next compound: CCn1c(=O)on(C(=O)N(c2ccc(Cl)cc2)C(C)C)c1=O [Compound 108]
Reply: 0

* * *

Tested on: pigweed
Experiment: Test B pre/postemergence pigweed
Format: in vivo, Amaranthus retroflexus
Details: Preemergence, Rate 125 g/ha; scale 0 to 10 (0 no effect, 10 complete control)
property_measured: Plant response rating, Redroot pigweed
Please reply with the value in numeric form only.

Recorded results for 5 molecules are shown here.
- molecule: "CC(C)N(C(=O)n1oc(=O)n(Cc2cccs2)c1=O)c1ccc(F)cc1 [Compound 80]"
  tgt: "pigweed"
  property_measured: "Plant response rating, Redroot pigweed"
  observed_value: 7
- molecule: "CC(C)N(C(=O)n1oc(=O)n(C2CCCCC2)c1=O)c1ccc(Cl)cc1 [Compound 111]"
  tgt: "pigweed"
  property_measured: "Plant response rating, Redroot pigweed"
  observed_value: 6
- molecule: "CCc1ccccc1-n1c(=O)on(C(=O)N(c2ccc(F)cc2F)C(C)C)c1=O [Compound 45]"
  tgt: "pigweed"
  property_measured: "Plant response rating, Redroot pigweed"
  observed_value: 0
- molecule: "Cc1cccc(C)c1-n1c(=O)on(C(=O)N(c2ccccc2)C(C)C)c1=O [Compound 46]"
  tgt: "pigweed"
  property_measured: "Plant response rating, Redroot pigweed"
  observed_value: 0
- molecule: "CCCn1c(=O)on(C(=O)N(c2ccc(Cl)cc2)C(C)C)c1=O [Compound 119]"
  tgt: "pigweed"
  property_measured: "Plant response rating, Redroot pigweed"
  observed_value: 10

Task item: # query: Plant response rating, Redroot pigweed of entry CCc1noc(CC)c1-n1c(=O)on(C(=O)N(c2ccc(F)cc2)C(C)C)c1=O [Compound 102]
Reply: 0

Task item: Next molecule: Cc1ccccc1-n1c(=O)on(C(=O)N(c2ccc(Cl)cc2)C(C)C)c1=O [Compound 41]
Reply: 1

Task item: Next molecule: Cc1nn(C)c(C)c1-n1c(=O)on(C(=O)N(c2ccc(F)cc2)C(C)C)c1=O [Compound 75]
Reply: 2

* * *

# Rape plant response rating annotations
System: rape
Test: Test B pre/postemergence rape
Format: in vivo, Brassica napus
Settings: Postemergence, Rate 125 g/ha; scale of 0 to 10 where 0 is no effect and 10 is complete control
Please reply with the value in numeric form only.

- compound: "CC(C)N(C(=O)n1oc(=O)n(CCCC#N)c1=O)c1ccc(F)cc1 [Compound 647]"
  tgt: "rape"
  Rape plant response rating: 0
- compound: "Cc1nn(C)c(C)c1-n1c(=O)on(C(=O)N(c2ccccc2)C(C)C)c1=O [Compound 120]"
  tgt: "rape"
  Rape plant response rating: 0
- compound: "C=CCn1c(=O)on(C(=O)N(c2ccccc2)C(C)C)c1=O [Compound 93]"
  tgt: "rape"
  Rape plant response rating: 3
- compound: "CCc1noc(CC)c1-n1c(=O)on(C(=O)N(c2ccc(F)cc2)C(C)C)c1=O [Compound 102]"
  tgt: "rape"
  Rape plant response rating: 0
- compound: "CC(C)N(C(=O)n1oc(=O)n(C2CCCCC2)c1=O)c1ccc(F)cc1 [Compound 110]"
  tgt: "rape"
  Rape plant response rating: 4

Task item: # query: Rape plant response rating of entry CCOC(CC)n1c(=O)on(C(=O)N(c2ccc(Cl)cc2)C(C)C)c1=O (stereo not drawn) [Compound 772]
Reply: 0

Task item: Next compound: Cc1nc(C(C)n2c(=O)on(C(=O)N(c3ccccc3)C(C)C)c2=O)sc1C (stereo not drawn) [Compound 756]
Reply: 0

Task item: Next compound: Cc1noc(C)c1-n1c(=O)on(C(=O)N(c2ccc(F)cc2)C(C)C)c1=O [Compound 155]
Reply: 0

Task item: Next compound: CCn1c(=O)on(C(=O)N(c2ccc(Cl)cc2)C(C)C)c1=O [Compound 108]
Reply: 0
